tested on: IFNγ-induced NO production in RAW 264.7 cells; test: Nitric Oxide Suppression Assay (IFNγ-induced NO, Griess nitrite readout); format: cell-based, mouse; conditions: Table 2; ratio to RTA402
# binarize Avg NO IC50 Relative to RTA402 (fold): threshold 3 fold inclusive, high side class 1, low side class 0

Below are worked cases with known answers.
CNC(=O)N(C)C[C@]12CC[C@@H](C)[C@H](C)[C@H]1[C@H]1C(=O)C=C3[C@@]4(C)C=C(C#N)C(=O)C(C)(C)[C@@H]4CC[C@@]3(C)[C@]1(C)CC2 = class 0
Cc1nc([C@]23CC[C@@H](C)[C@H](C)[C@H]2[C@H]2C(=O)C=C4[C@@]5(C)C=C(C#N)C(=O)C(C)(C)[C@@H]5CC[C@@]4(C)[C@]2(C)CC3)no1 = class 1
C[C@@H]1[C@H]2[C@H]3C(=O)C=C4[C@@]5(C)C=C(C#N)C(=O)C(C)(C)[C@@H]5CC[C@@]4(C)[C@]3(C)CC[C@@]2(Cn2cncn2)CC[C@H]1C = class 0
CCNC(=O)N[C@]12CC[C@@H](C)[C@H](C)[C@H]1[C@H]1C(=O)C=C3[C@@]4(C)C=C(C#N)C(=O)C(C)(C)[C@@H]4CC[C@@]3(C)[C@]1(C)CC2 = class 1
C[C@@H]1[C@H]2[C@H]3C(=O)C=C4[C@@]5(C)C=C(C#N)C(=O)C(C)(C)[C@@H]5CC[C@@]4(C)[C@]3(C)CC[C@@]2(F)CC[C@H]1C = class 1

API: above_or_equal(metric=Avg NO IC50 Relative to RTA402 (fold), cutoff=3 fold) for item C[C@@H]1[C@H]2[C@H]3C(=O)C=C4[C@@]5(C)C=C(C#N)C(=O)C(C)(C)[C@@H]5CC[C@@]4(C)[C@]3(C)CC[C@@]2(CNC(=O)N2CCC2)CC[C@H]1C class 0

State whether the measured Avg NO IC50 Relative to RTA402 (fold) reaches 3 fold, counting equality as reaching it, for CNC(=O)NC[C@]12CC[C@@H](C)[C@H](C)[C@H]1[C@H]1C(=O)C=C3[C@@]4(C)C=C(C#N)C(=O)C(C)(C)[C@@H]4CC[C@@]3(C)[C@]1(C)CC2 class 0

Exam item: decide whether the reported Avg NO IC50 Relative to RTA402 (fold) for C[C@@H]1[C@H]2[C@H]3C(=O)C=C4[C@@]5(C)C=C(C#N)C(=O)C(C)(C)[C@@H]5CC[C@@]4(C)[C@]3(C)CC[C@@]2(CN2CCC2)CC[C@H]1C is at least 3 fold. class 1

Ref: patent US20240140986A1
